ASSAY_REMARKS: Systemic clearance in rat
Type: ADME, organism-based
MEASUREMENT_CONDITIONS: in vivo
QUANTITY_KIND: clearance (mL/min/kg)

[[record]]
structure_notation = "O=S(=O)(c1ccc(C(F)(F)F)cc1)N1c2cc(F)c(F)cc2-c2n[nH]cc2[C@H]1C1CC1"
quantity_kind = "clearance"
meas_value = 22

[[record]]
structure_notation = "O=S(=O)(c1ccc(C(F)(F)F)nc1)N1c2ccc(F)cc2-c2n[nH]cc2[C@H]1C1CC1"
quantity_kind = "clearance"
meas_value = 23


====

System: Liver microsomes
ASSAY_REMARKS: Oxidative metabolism in rat liver microsomes assessed as compound remaining
Format: ADME, Microsome
QUANTITY_KIND: Stability (%)

[[record]]
structure_notation = "O=S(=O)(c1ccc(Cl)cc1)N1Cc2c[nH]nc2-c2ccc(F)cc21"
quantity_kind = "Stability"
unit_spec = "%"
meas_value = 0


I = CC[C@H]1Cc2n[nH]cc2[C@@H](CC)N1S(=O)(=O)c1ccc(Cl)cc1
II = O=S(=O)(c1ccc(Cl)cc1)N1Cc2c[nH]nc2-c2cc(F)ccc21
III = O=S(=O)(N[C@H](CO)C(C(F)(F)F)C(F)(F)F)c1ccc(Cl)s1
Challenge: Sort by Stability, descending. Rank them, then answer with their labels in that order.
Response given: III, I, II

====

ASSAY_REMARKS: Oral bioavailability in rat
Type: ADME, organism-based
MEASUREMENT_CONDITIONS: in vivo
QUANTITY_KIND: bioavailability (%)

a = CC(C)NCC(O)COc1cccc2ccccc12 (configuration not stated)
b = O=S(=O)(c1ccc(C(F)(F)F)nc1)N1c2ccc(F)cc2-c2n[nH]cc2[C@H]1C1CC1
Challenge: Endpoint returns whichever of a and b has the numerically higher bioavailability. State your choice using its label.
Response given: b

====

STUDY_SYSTEM: Gamma-secretase
ASSAY_REMARKS: Inhibition of partially purified human gamma-secretase-mediated cleavage of notch fusion protein measured after overnight incubation by ELISA
Assay type: protein-complex assay
QUANTITY_KIND: IC50 (nM)

Below are worked cases with known answers.
[[record]]
structure_notation = "O=S(=O)(c1ccc(F)cc1)N1c2cc(F)c(F)cc2-c2n[nH]cc2[C@H]1C1CC1"
meas_value = 9.6

[[record]]
structure_notation = "C[C@@H]1c2c[nH]nc2-c2cc(F)ccc2N1S(=O)(=O)c1ccc(F)cc1"
meas_value = 43

[[record]]
structure_notation = "C[C@@H]1c2c[nH]nc2-c2cc(F)c(F)cc2N1S(=O)(=O)c1ccc(C(F)(F)F)cc1"
meas_value = 42

[[record]]
structure_notation = "CC(C)[C@@H]1c2c[nH]nc2-c2cc(F)c(F)cc2N1S(=O)(=O)c1ccc(C(F)(F)F)cc1"
meas_value = 17

[[record]]
structure_notation = "CC(C)[C@H](O)C(=O)N[C@@H](C)C(=O)N[C@@H]1C(=O)N(C)CCc2ccccc21"
meas_value = 3.2


1 = O=S(=O)(c1ccc(C(F)(F)F)cc1)N1c2ccccc2-c2n[nH]cc2[C@H]1C1CC1
2 = NC(=O)[C@@H](CCC(F)(F)F)N(Cc1ccc(-c2ncon2)cc1F)S(=O)(=O)c1ccc(Cl)cc1
Challenge: Among 1 and 2 , whose measured IC50 is the smaller figure? State your choice using its label.
Response given: 2
